System: HT-29 cells
experimental details: Cell necrosis inhibitory activity under necroptosis-inducing conditions (TNF-α, Z-VAD-FMK, LCL161) in HT-29 cells, Cell Titer-Glo
Assay type: cell-based
test conditions: Homo sapiens, 100 ng/mL TNF-α + 25 μM Z-VAD-FMK + Smac mimetic LCL161, 24 hours, cell viability

smiles code | target | unit name | EC50
Cc1ncc(-c2ccc3nc(N)nn3c2)cc1NC(=O)N1OCC[C@H]1c1cc(F)cc(C(F)(F)F)c1 | HT-29 cells | nM | 7.3
Cc1ccc(-c2ccn3nc(N)nc3c2)cc1NC(=O)N1OCC[C@H]1c1ccc(F)cc1 | HT-29 cells | nM | 0.2
Cc1ccc(-c2ccn3nc(N)cc3c2)cc1NC(=O)N1Oc2ccccc2[C@H]1c1ccccc1 | HT-29 cells | nM | 2.2
COCC(=O)Nc1cn2nc(-c3cnc(OC)c(NC(=O)N4OCC[C@H]4c4ccccc4)c3)ccc2n1 | HT-29 cells | nM | 0.9
Cc1ccc(-c2ccc3nc(N)nn3c2)cc1NC(=O)N1OCC[C@H]1c1ccc(C#N)cc1 | HT-29 cells | nM | 0.9
Cc1ccc(-c2ccc3nc(N)oc3c2)cc1NC(=O)N1OCC[C@H]1c1ccccc1 | HT-29 cells | nM | 1
COc1ncc(-c2ccc3c(N)ncnn23)cc1NC(=O)N1OCC[C@H]1c1ccccc1 | HT-29 cells | nM | 8.2
Cc1cc(F)c(-c2ccc3nc(N)nn3c2)cc1NC(=O)N1OCC[C@H]1c1ccccc1 | HT-29 cells | nM | 0.5
COc1ncc(-c2ccn3nc(N)nc3c2)cc1NC(=O)N1OCC[C@H]1c1cccc(F)c1 | HT-29 cells | nM | 0.5
Cc1ncc(-c2ccc3nc(N)nn3c2)cc1NC(=O)N1OCC[C@H]1c1ccc(C#N)cc1 | HT-29 cells | nM | 3.9
Cc1ccc(-c2ccc3nc(N)cn3n2)cc1NC(=O)N1OCC[C@H]1c1ccccc1 | HT-29 cells | nM | 7.5
Cc1ccc(-c2ccn3nc(N)nc3c2)cc1NC(=O)N1OCC[C@H]1c1cccc(F)c1 | HT-29 cells | nM | 0.2
COc1ncc(-c2ccn3nc(N)nc3c2)cc1NC(=O)N1OCC[C@H]1c1cc(F)cc(F)c1 | HT-29 cells | nM | 0.4
Nc1nc2cc(-c3ccc(F)c(NC(=O)N4OCC[C@H]4c4ccccc4)c3)ccn2n1 | HT-29 cells | nM | 0.3
COc1ncc(-c2ccn3nc(N)nc3c2)cc1NC(=O)N1OCC[C@H]1c1ccccc1 | HT-29 cells | nM | 0.5
Cc1ccc(-c2ccc3nc(N)nn3c2)cc1NC(=O)N1OCC[C@H]1c1ccc(Cl)cc1 | HT-29 cells | nM | 0.4
